Target: human NK3 receptor (Homo sapiens, UniProt P29371)
Sequence (P29371 whole entry): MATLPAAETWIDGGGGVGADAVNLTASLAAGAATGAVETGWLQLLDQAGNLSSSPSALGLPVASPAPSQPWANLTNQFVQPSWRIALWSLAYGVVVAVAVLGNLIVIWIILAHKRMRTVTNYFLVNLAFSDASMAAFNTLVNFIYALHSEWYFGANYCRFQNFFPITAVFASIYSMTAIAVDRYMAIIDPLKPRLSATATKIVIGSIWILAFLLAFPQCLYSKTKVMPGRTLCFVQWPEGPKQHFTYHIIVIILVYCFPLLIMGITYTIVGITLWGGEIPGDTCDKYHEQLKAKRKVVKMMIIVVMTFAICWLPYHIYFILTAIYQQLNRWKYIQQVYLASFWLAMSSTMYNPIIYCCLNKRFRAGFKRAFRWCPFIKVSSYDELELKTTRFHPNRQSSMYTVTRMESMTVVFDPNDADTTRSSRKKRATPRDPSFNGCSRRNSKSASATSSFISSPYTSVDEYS
Test: [3H]SR142801 competition binding assay
Details: membrane from HEK293 cells transiently expressing recombinant human NK3 receptor; radioligand [3H]SR142801; Ki from IC50 by Cheng-Prussoff equation
MEASURED_PARAMETER: Ki (nM)

Answered cases to consult:
COMPOUND: CS(=O)(=O)N1CCN(C(=O)N2CC(CNc3ccc(C(F)(F)F)cn3)C(c3ccc(Cl)c(Cl)c3)C2)CC1 (racemic)
EXPERIMENTAL_TARGET: human NK3 receptor (Homo sapiens, UniProt P29371)
QUANTITY_UNIT: nM
Ki: 20

COMPOUND: CS(=O)(=O)N1CCN(C(=O)N2C[C@H](CSc3ccc(Cl)cn3)[C@@H](c3ccc(Cl)c(Cl)c3)C2)CC1 (racemic)
EXPERIMENTAL_TARGET: human NK3 receptor (Homo sapiens, UniProt P29371)
QUANTITY_UNIT: nM
Ki: 2.2

COMPOUND: CN(C[C@H]1CN(C(=O)C2CCN(C(=O)C3(C)CC3)CC2)C[C@@H]1c1ccc(Cl)cc1)c1ccc(C#N)cn1
EXPERIMENTAL_TARGET: human NK3 receptor (Homo sapiens, UniProt P29371)
QUANTITY_UNIT: nM
Ki: 69.9

[1] CN(C[C@H]1CN(C(=O)C2CCN(C(=O)C3(C)CC3)CC2)C[C@@H]1c1ccc(Cl)cc1)c1ccc(C(F)(F)F)cn1
[2] CC1(C(=O)N2CCC(C(=O)N3C[C@H](CNc4ncc(C(F)(F)F)cn4)[C@@H](c4ccc(Cl)c(Cl)c4)C3)CC2)CC1 [Example 57]
Exercise: compare 1 and 2 ; which one has the greater Ki? Lab note: record the label of whichever item you select.
1
(1: 85.6 nM, 2: 1.8 nM)

---

Molecular target: human NK3 receptor (Homo sapiens)
Assay: [3H]SR142801 competition binding assay
Details: membrane from HEK293 cells transiently expressing recombinant human NK3 receptor; radioligand [3H]SR142801; Ki from IC50 by Cheng-Prussoff equation
MEASURED_PARAMETER: Ki (nM)

Answered cases to consult:
COMPOUND: CS(=O)(=O)N1CCN(C(=O)N2C[C@H](CSc3ccc(Cl)cc3)[C@@H](c3ccc(Cl)c(Cl)c3)C2)CC1 (racemic)
EXPERIMENTAL_TARGET: human NK3 receptor (Homo sapiens)
Ki / nM: 45.9
//
COMPOUND: CS(=O)(=O)N1CCN(C(=O)N2CC(CNc3ncc(C#N)cn3)C(c3ccc(Cl)c(Cl)c3)C2)CC1 (racemic)
EXPERIMENTAL_TARGET: human NK3 receptor (Homo sapiens)
Ki / nM: 80
//
COMPOUND: N#Cc1ccc(C(=O)N2C[C@H](CNc3ncc(Cl)cn3)[C@@H](c3ccc(Cl)c(Cl)c3)C2)cn1 (racemic)
EXPERIMENTAL_TARGET: human NK3 receptor (Homo sapiens)
Ki / nM: 46.3
//
COMPOUND: CS(=O)(=O)N1CCN(C(=O)N2C[C@H](CNc3ccc(C(F)(F)F)cc3)[C@@H](c3ccc(Cl)c(Cl)c3)C2)CC1 (racemic)
EXPERIMENTAL_TARGET: human NK3 receptor (Homo sapiens)
Ki / nM: 58.5
//
COMPOUND: CS(=O)(=O)N1CCN(C(=O)N2C[C@H](CSc3ccc(C#N)cc3)[C@@H](c3ccc(Cl)c(Cl)c3)C2)CC1 (racemic)
EXPERIMENTAL_TARGET: human NK3 receptor (Homo sapiens)
Ki / nM: 61.7
//
COMPOUND: CN(C[C@H]1CN(C(=O)C2CCN(C(=O)C3(C)CC3)CC2)C[C@@H]1c1ccc(Cl)c(Cl)c1)c1ccc(C(F)(F)F)cn1
EXPERIMENTAL_TARGET: human NK3 receptor (Homo sapiens)
Ki / nM: 8.4
//
COMPOUND: CN(C[C@H]1CN(C(=O)C2CCN(C(=O)C3(C)CC3)CC2)C[C@@H]1c1ccc(Cl)cc1)c1ncc(C(F)(F)F)cn1
EXPERIMENTAL_TARGET: human NK3 receptor (Homo sapiens)
Ki / nM: 42.9
//
COMPOUND: CN(C[C@H]1CN(C(=O)C2CCN(C(=O)C3(C)CC3)CC2)C[C@@H]1c1ccc(Cl)c(Cl)c1)c1ccc(Cl)cn1
EXPERIMENTAL_TARGET: human NK3 receptor (Homo sapiens)
Ki / nM: 47
//
COMPOUND: CC(Nc1ccc(C(F)(F)F)cn1)[C@H]1CN(C(=O)N2CCN(S(C)(=O)=O)CC2)C[C@@H]1c1ccc(Cl)c(Cl)c1 (mixture of isomers)
EXPERIMENTAL_TARGET: human NK3 receptor (Homo sapiens)
Ki / nM: 54.9
//
COMPOUND: CC(=O)N1CCC(C(=O)N2C[C@H](CNc3ccc(C(F)(F)F)cn3)[C@@H](c3ccc(Cl)c(Cl)c3)C2)CC1 (racemic)
EXPERIMENTAL_TARGET: human NK3 receptor (Homo sapiens)
Ki / nM: 10.3

[A] CC(=O)N1CCC(C(=O)N2C[C@H](CNc3ncc(Cl)cn3)[C@@H](c3ccc(Cl)c(Cl)c3)C2)CC1 (racemic)
[B] CC1(C(=O)N2CCC(C(=O)N3C[C@H](CNc4ncc(C(F)(F)F)cn4)[C@@H](c4ccc(Cl)c(Cl)c4)C3)CC2)CC1 (racemic) [Example 34]
Exercise: compare A and B ; which one has the greater Ki? Lab note: record the label of whichever item you select.
A
(A: 19.5 nM, B: 6.2 nM)

---

Target: human NK3 receptor (Homo sapiens, UniProt P29371)
Assay: [3H]SR142801 competition binding assay
Settings: membrane from HEK293 cells transiently expressing recombinant human NK3 receptor; radioligand [3H]SR142801; Ki from IC50 by Cheng-Prussoff equation
pKi: −log10 of the molar value.
MEASURED_PARAMETER: pKi

Answered cases to consult:
COMPOUND: CN(C[C@H]1CN(C(=O)C2CCN(C(=O)C3(C)CC3)CC2)C[C@@H]1c1ccc(F)cc1)c1ncc(C(F)(F)F)cn1 (racemic)
ENDPOINT_VALUE: 7.15

COMPOUND: CS(=O)(=O)N1CCN(C(=O)N2C[C@H](CNc3ccc(C#N)cn3)[C@@H](c3ccc(Cl)c(Cl)c3)C2)CC1
ENDPOINT_VALUE: 7.15

COMPOUND: CN(C[C@H]1CN(C(=O)N2CCN(S(C)(=O)=O)CC2)C[C@@H]1c1ccc(Cl)c(Cl)c1)c1ccc(C(F)(F)F)cn1 (racemic)
ENDPOINT_VALUE: 7.10

COMPOUND: CC(Nc1ccc(C#N)cn1)[C@H]1CN(C(=O)N2CCN(S(C)(=O)=O)CC2)C[C@@H]1c1ccc(Cl)c(Cl)c1 (mixture of isomers)
ENDPOINT_VALUE: 7.17

[P] Cc1cc(C(=O)N2C[C@H](CN(C)c3ncc(C(F)(F)F)cn3)[C@@H](c3ccc(Cl)c(Cl)c3)C2)cnn1
[Q] N#Cc1ccc(C(=O)N2CC(CNc3ccc(C(F)(F)F)cn3)C(c3ccc(Cl)c(Cl)c3)C2)cn1 (racemic)
[R] CS(=O)(=O)N1CCN(C(=O)N2C[C@H](CSc3ccc(C(F)(F)F)cn3)[C@@H](c3ccc(Cl)c(Cl)c3)C2)CC1 (racemic)
Rank by pKi (largest to smallest). Return value: ordered labels per request.
R, Q, P
